reportedMetric: melting point

Below, 8 compounds whose answers are already recorded.
                                   compound  reportedmetric  observedresult
0                  Cc1cc(Cl)c(O)cc1OCC(=O)O   melting point   131 to 133 °C
1               O=C1CCCC(=O)N1Cc1cccc(Br)c1   melting point     76 to 78 °C
2       O=C(O)c1ccc(-n2ncc(Cl)c(Cl)c2=O)cc1   melting point   314 to 316 °C
3                          Cn1nccc1C1CCNCC1   melting point     66 to 68 °C
4             COc1ccc(-n2c(N)nc3ccccc32)cc1   melting point   181 to 183 °C
5  O=C(O)C1CC(=O)N(c2ccc(S(=O)(=O)Cl)cc2)C1 (stereo unspecified)   melting point   157 to 159 °C
6                      Nc1ccc(Oc2ccncc2)cc1   melting point   160 to 162 °C
7                O=C1CN(Cc2ccc(Br)cc2F)CCN1   melting point   142 to 144 °C

Required: melting point, one value per compound below.
1. CN(C)C(=O)Sc1cnc2c(c1)c(=O)n(C)c(=O)n2C
2. CC(Cl)C(=O)Nc1cc(Cl)ccc1Cl (stereo unspecified)
3. CC1CCCN(S(=O)(=O)c2ccc(CN)cc2)C1 (stereo unspecified)
4. Cn1ccc(C(=O)CCl)c1
5. FC(F)(F)c1cc(Cl)ccc1-n1nnnc1CCl
6. COC(=O)c1cc(S(N)(=O)=O)c(F)cc1Br

Marked response:
["170 to 172 °C", "123 to 125 °C", "92 to 94 °C", "49 to 51 °C", "101 to 103 °C", "164 to 166 °C"]

For every listed record, write down its melting point.
1. COc1cc(C=O)cc(Cl)c1OC(C)C
2. Cc1cc(OC(C)C(=O)O)ccc1Cl (stereo unspecified)

Marked response:
34 to 36 °C
87 to 89 °C

Batch request: melting point per item, same order as input.
1. O=Cc1cccc(OCC(F)(F)F)c1
2. Nc1nc2ccccn2n1
3. COc1cccc(-c2noc(SCC(=O)O)n2)c1
4. O=C(O)c1ccc(NS(=O)(=O)c2ccc(F)c(Cl)c2)cc1
5. O=C(O)C1CC(=O)N(c2ccc3c(c2)OCCO3)C1 (stereo unspecified)
6. Nc1ccc(Oc2ccnc3ccccc23)c(F)c1

Marked response:
29 to 31 °C
123 to 125 °C
103 to 105 °C
240 to 242 °C
221 to 223 °C
158 to 160 °C

Answer for every listed entry: what is its melting point? The entries follow.
1. COc1cccc(N2CC(C(=O)O)CC2=O)c1 (stereo unspecified)
2. O=C(O)CCCNC(=O)c1cccnc1
3. CCNS(=O)(=O)c1c[nH]c(C(=O)O)c1
4. O/N=C(\Cc1nccn1C(F)F)c1ccccc1
5. CSc1cnn(-c2ccccc2)c1N
6. C=CCC(NC(C)=O)C(=O)O (stereo unspecified)

Marked response:
1. 166 to 168 °C
2. 211 to 213 °C
3. 183 to 185 °C
4. 150 to 152 °C
5. 77 to 79 °C
6. 114 to 116 °C

* * *

Give melting point for every item shown.

The following molecules have reported results that may help.
>>> df
                         chemicalstring  observedresult
0  Cc1cc(C(=O)O)c(C)n1-c1ccc2c(c1)OCCO2   204 to 206 °C
1         Cc1nn(Cc2ccc(F)cc2)c(Cl)c1C=O     49 to 51 °C
2                   N#CCC(=O)NCc1ccccc1   125 to 127 °C

Exam item: State the recorded melting point for this entry: `Cc1ccc(NC(=S)NN)cc1C`
Marked response: 176 to 178 °C

* * *

Consider the following compounds; for each one, report its melting point.

>>> df
                         compound  reportedmetric  observedresult
0  COc1ccc(Oc2c(F)cc(CCl)cc2F)cc1   melting point     62 to 64 °C

Dear colleague, could you please provide melting point for the compounds listed below?
1. CN(CC(=O)O)S(=O)(=O)C=Cc1ccccc1
2. CN1C(=O)CCc2cc(N)ccc21

Marked response:
1: 150 to 152 °C; 2: 101 to 103 °C

Each compound below has a recorded value; state its melting point.
1. CC(C)NC(=O)CSc1ccccc1C(=O)O
2. COc1ccccc1-c1nnc(S)n1C
3. O=C(O)c1cc2ccccc2c(OCC2CC2)n1
4. O=C(CCl)c1ccc(I)cc1
5. CC(C)CCn1nc(C(=O)O)c2ccccc2c1=O

Marked response:
1: 181 to 185 °C; 2: 177 to 179 °C; 3: 177 to 179 °C; 4: 127 to 129 °C; 5: 133 to 135 °C

// each compound listed below needs its melting point
1. COC(=O)Cn1cnc(N)n1
2. Nc1cc(Br)ccc1-n1cccn1
3. Nc1nnc(C2CCCCC2)o1
4. O=C(Cc1ccccc1)Nc1ccccc1C(=O)O
5. NC(=O)c1ncon1
6. Cc1ccc(SCCC(=O)O)cc1
7. CC(NC1=NS(=O)(=O)c2ccccc21)C(=O)O (configuration not stated)
8. CC(=O)N1CCN(CC#N)CC1

Marked response:
1. 136 to 138 °C
2. 69 to 71 °C
3. 222 to 224 °C
4. 192 to 194 °C
5. 156 to 158 °C
6. 71 to 73 °C
7. 220 to 222 °C
8. 107 to 109 °C

Count: 7. Required value per item: melting point.
1. Nc1ccn(CCc2ccccn2)n1
2. c1cc2c[nH]nc2cn1
3. CNS(=O)(=O)c1ccc(S(N)(=O)=O)cc1
4. CN(C)S(=O)(=O)CCC(=O)O
5. COc1ccc(Br)cc1C(N)C(=O)O (configuration not stated)
6. COc1ccc(Nc2ncccc2N)cc1
7. Clc1cc2c(cc1Br)OCCN2

Marked response:
1. 69 to 71 °C
2. 104 to 106 °C
3. 154 to 156 °C
4. 121 to 123 °C
5. 163 to 165 °C
6. 164 to 166 °C
7. 124 to 126 °C

* * *

reportedMetric: melting point

# batch: return melting point for each of the 8 compounds below
1. CN1C(=O)CCC(C(N)=O)C1c1cnn(C)c1 (stereo unspecified)
2. CC1(c2cc(F)ccc2F)NC(=O)NC1=O (stereo unspecified)
3. Cc1oc(C(=O)O)cc1C(=O)CCl
4. O=C(COc1ccccc1C(=O)O)Nc1cccc(C(F)(F)F)c1
5. Cc1cc(N)ccc1OCCN1CCCC1
6. O=C(NCc1ccccc1)c1cc(Cl)ccn1
7. O=C(O)c1cn(CC(=O)N2CCCC2)nn1
8. O=C(CCCl)NCC(=O)c1ccccc1

Marked response:
["185 to 187 °C", "227 to 229 °C", "206 to 208 °C", "243 to 245 °C", "112 to 114 °C", "66 to 68 °C", "208 to 210 °C", "120 to 122 °C"]

Respectfully, I request melting point for each entry included below.
1. O=C(O)CNC(=O)c1ncccc1O
2. Cc1ncc(CN)n1-c1ccccc1
3. Cc1cccc(-n2cc(C(=O)CCl)nn2)c1
4. Nc1cc(C(=O)O)cnc1Cl
5. CC(O)c1ncc(Cl)n1C (stereo unspecified)
6. [N-]=[N+]=Nc1ccnc(C(N)=O)c1

Marked response:
234 to 236 °C
46 to 48 °C
141 to 143 °C
199 to 201 °C
113 to 115 °C
169 to 171 °C

Give one value of melting point per listed compound.
1. N#Cc1ccc(CNC(=O)CCl)cc1
2. N#Cc1ccccc1Oc1ccc(CCl)cc1
3. O=C(O)CCc1nc2cccc(Cl)c2[nH]1
4. c1cnc2c(c1)NCCCN2

Marked response:
142 to 144 °C
54 to 56 °C
209 to 211 °C
84 to 86 °C

* * *

reportedMetric: melting point

// worked examples, melting point included
>>> df
                                  compound  reportedmetric  observedresult
0                    CC(C)c1cc(C(=O)O)nn1C   melting point     87 to 89 °C
1  Nc1ccc(S(=O)(=O)Nc2cccc(C(F)(F)F)c2)cc1   melting point   113 to 115 °C
2        O=CC1=C(N2CCOCC2)C(=Cc2ccccc2)CC1   melting point   141 to 143 °C
3                  O=C(Nc1ccccc1)NC1CCNCC1   melting point   169 to 171 °C

For every item in the list below, what is its measured melting point?
1. CC(=O)c1cncc(F)c1
2. CCc1ccc(S(=O)(=O)O)cc1N
3. O=c1[nH]c(-c2ccccn2)nc2c1CCC2
4. O=Cc1cnc2cnccn12
5. CNc1ccccc1S(C)(=O)=O
6. O=C(O)CCNS(=O)(=O)c1ccc(Cl)c([N+](=O)[O-])c1
7. Nc1ccnc(OC2CCCCC2)c1
8. COc1ccc(C(=O)c2ccc(C)cc2)cc1

Marked response:
1: 48 to 50 °C; 2: 268 to 270 °C; 3: 178 to 180 °C; 4: 178 to 180 °C; 5: 96 to 98 °C; 6: 113 to 115 °C; 7: 114 to 116 °C; 8: 88 to 90 °C

Required: melting point, one value per compound below.
1. Cc1noc2ncnc(N)c12
2. Nc1ncccc1OCC1CCCCC1
3. O=C(c1cccc([N+](=O)[O-])c1)C(F)(F)F
4. Cc1nc2ncnn2c(C)c1CC(=O)O
5. O=[N+]([O-])c1ccc(OCC(F)(F)F)nc1
6. CCC(C)n1nc(C(=O)O)cc1C (stereo unspecified)

Marked response:
1: 269 to 271 °C; 2: 117 to 119 °C; 3: 53 to 55 °C; 4: 220 to 222 °C; 5: 41 to 43 °C; 6: 103 to 105 °C
